# test method notes: Plasma protein binding (equilibrium dialysis), human
# Assay type: in vitro ADME
# setup conditions: pH 7.4; human plasma, 1 μM, 6 hours dialysis; read-out: Mean % Bound Human (converted)
value kind: fraction unbound at 6 h, 1 μM
Numbers only.

chemical string	fraction unbound at 6 h, 1 μM
C[C@@H](CO)c1nnc(-c2cnn3ccc(N4CCC[C@@H]4c4cc(F)ccc4F)nc23)[nH]1	0.111
C[C@H](N)c1nnc(-c2cnn3ccc(N4CCC[C@@H]4c4cc(F)ccc4F)nc23)[nH]1	0.284

Field: next compound
(Q) Item CC(C)(O)c1nnc(-c2cnn3ccc(N4CCC[C@@H]4c4cc(F)ccc4F)nc23)[nH]1 : provide fraction unbound at 6 h, 1 μM
(A) 0.0988

====

# test method notes: Plasma protein binding (equilibrium dialysis), human
# Format: in vitro ADME
# setup conditions: pH 7.4; human plasma, 1 μM, 6 hours dialysis; read-out: Mean % Bound Human (converted)
Param label: returns class 1 when fraction unbound at 6 h, 1 μM < 0.09, returns class 0 otherwise, including exact equality.

Sample answers from the record:
compound	answer label
CC(C)(O)Cc1nnc(-c2cnn3ccc(N4CCC[C@@H]4c4cc(F)ccc4F)nc23)[nH]1 [Compound 30]	class 0
C[C@@H](O)c1nnc(-c2cnn3ccc(N4CCC[C@@H]4c4cc(F)ccc4F)nc23)[nH]1 [Compound 34]	class 1
OC1(c2nnc(-c3cnn4ccc(N5CCC[C@@H]5c5cc(F)ccc5F)nc34)[nH]2)CCC1 [Compound 23]	class 1
Cc1nnc(-c2cnn3ccc(N4CCCC4c4cc(F)ccc4F)nc23)[nH]1 (stereo not shown) [Comparative compound A, reference compound]	class 1
OC1CC(c2nnc(-c3cnn4ccc(N5CCC[C@@H]5c5cc(F)ccc5F)nc34)[nH]2)C1 (stereo partly shown) [Compound 31]	class 0

(Q) # strict comparison: is reported fraction unbound at 6 h, 1 μM < 0.09? input = NC1(c2nnc(-c3cnn4ccc(N5CCC[C@@H]5c5cc(F)ccc5F)nc34)[nH]2)CCC1 [Compound 24]
(A) class 0

(Q) Confirm or reject: fraction unbound at 6 h, 1 μM of C[C@H](O)c1nnc(-c2cnn3ccc(N4CCC[C@@H]4c4cc(F)ccc4F)nc23)[nH]1 [Compound 4] lies strictly below 0.09
(A) class 1

====

Assign pIC50 to each entry below.
# target system: TrkA kinase (Homo sapiens, UniProt P04629)
# Sequence (P04629 33-796): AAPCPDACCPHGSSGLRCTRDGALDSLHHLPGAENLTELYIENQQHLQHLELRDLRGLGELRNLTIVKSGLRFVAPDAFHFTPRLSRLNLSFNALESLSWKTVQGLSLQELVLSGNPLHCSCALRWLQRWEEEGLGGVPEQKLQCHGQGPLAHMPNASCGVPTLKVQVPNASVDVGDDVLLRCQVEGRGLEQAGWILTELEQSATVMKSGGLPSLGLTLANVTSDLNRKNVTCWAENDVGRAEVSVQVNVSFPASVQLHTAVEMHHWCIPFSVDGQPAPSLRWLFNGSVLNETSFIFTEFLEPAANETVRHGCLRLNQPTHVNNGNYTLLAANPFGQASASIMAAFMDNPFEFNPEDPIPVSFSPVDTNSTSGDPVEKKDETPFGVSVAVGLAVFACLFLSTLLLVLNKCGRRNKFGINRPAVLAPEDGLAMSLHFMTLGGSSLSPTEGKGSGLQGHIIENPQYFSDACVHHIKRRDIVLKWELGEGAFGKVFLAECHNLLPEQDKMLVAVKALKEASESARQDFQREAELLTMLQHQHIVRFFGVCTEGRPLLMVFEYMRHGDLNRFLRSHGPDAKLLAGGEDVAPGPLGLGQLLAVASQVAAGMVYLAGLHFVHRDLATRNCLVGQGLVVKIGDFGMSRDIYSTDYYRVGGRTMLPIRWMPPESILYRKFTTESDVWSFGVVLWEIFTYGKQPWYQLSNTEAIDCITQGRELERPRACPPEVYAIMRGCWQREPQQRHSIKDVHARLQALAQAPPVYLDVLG
# test method notes: TrkA kinase assay (mobility shift assay)
# Format: biochemical
# setup conditions: numeric values; read-out: Trk A Kinase IC50
One number for each entry, as −log10 of the molar value.

Known pIC50 results, listed for orientation:
chemical string	target system	reported value
Fc1ccc(F)c([C@H]2CCCN2c2ccn3ncc(-c4nc5cc6c(cc5[nH]4)OCCCO6)c3n2)c1	TrkA kinase (Homo sapiens, UniProt P04629)	8.96
COc1cc2[nH]c(-c3cnn4ccc(N5CCC[C@@H]5c5cccc(F)c5)nc34)nc2cc1C#N	TrkA kinase (Homo sapiens, UniProt P04629)	8.59
Fc1ccc(F)c([C@H]2CCCN2c2ccn3ncc(-c4nc5cc(CN6CCOCC6)ccc5[nH]4)c3n2)c1	TrkA kinase (Homo sapiens, UniProt P04629)	9.22

// switching to the query compound
(Q) Give the reported value of pIC50 for this record: Fc1ccc(F)c([C@H]2CCCN2c2ccn3ncc(-c4nnc(-c5ccc(N6CCNCC6)cc5)[nH]4)c3n2)c1
(A) 8.81

The values you see were collected from patent US20210395256A1.
